FYI, the data here is from the supplement of paper PMC9170038.

Test system: MS2 coat protein
Assay: apparent KD of MS2 coat protein; designed switch direction (-1 OFF switch, 1 ON switch): -1; higher = weaker reporter binding
Details: Eterna round: R95; input ligand: microRNA oligo, concentration not stated
Measured Parameter: apparent KD of MS2 coat protein (nM)
Your answer should be a plain number; it is taken to be in nM.

Find the measured apparent KD of MS2 coat protein: item CUGGUCCGAGGAUAUAUUAAGUGAAACAUGAGGAUCACCCAUGUAAUUUAAUGGAUGUAAAUAGAAGGCGGACUAG [Mat - Exclusion 5 - JL mod - D39] (puzzle: Exclusion 5) , target or system MS2 coat protein.
35.3

Also GUGGUGACAGGAUAUACAUGAGGAUCACCCAUGUGAGGAGGAGGAGAGAGGUGAAGGAGUAGAAGGGUCAGAGA [JR_Exclu3_Sub025] (puzzle: Exclusion 3) ?
91.5

Also UGGUGGUAGCAGGAUAUGCUUGUUGUGUAGUUUGCAGAAGGGCUAACAUGAGGAUCACCCAUGUAAGAGGUGUU [JR_E6_Sub054] (puzzle: Exclusion 6) ?
339

Also UUUUACAAGCCAGAUCCUCACAUGAGGAUCACCCAUGUGCUCGUCUGUUUUUGUACUAUCACGUUUGUGAUAGUGUU [Level Boss var2-09] (puzzle: Sensor v3, turn-off variant 1) ?
14.6

Also UUUAAUUUUUUUUUUUUACAAGCUUUUUGCUCGUCUUAUACAUGAGGAUCACCCAUGUGAGUGGGAGGUAAAUUAUC [JMF 77] (puzzle: Sensor v3, turn-off variant 2) ?
276

Also CAUUACUGCAAGCUAUGGGACAUGAGGAUCACCCAUGUUCGUCUUAUUGAUCUAGGUACGCUGACGUACCUAGAUCU [JL-sv1-2.21 Brourd mod] (puzzle: Sensor v3, turn-off variant 1) ?
21.4

Also GCAUGCUAUGUCAGGAUAUACCUGUGGAUACAUAGGUAGAAGGGACAUGAGGAUCACCCAUGUCCUAAUCAUGC [Fiskers BMX 4 - 24] (puzzle: Brourd's mod of Exclusion 4) ?
12.1

Also AAGAACGUAGGAUAUACAUGAGGAUCACCCAUGUGAGGAAGGAGUAGGAAGCGUGGAAGUAGAAGGACGGAGAG [JR_Exclu3_Sub075] (puzzle: Exclusion 3) ?
39.4

Also GGUUGACAUGAGGAUCACCCAUGUGAGGAUAUGCGAGAGAAAAAAGUGAGGAAGAAAAGUAGAAGGCGCUGACG [salish99-ex1_r3_001] (puzzle: Exclusion 1) ?
49

Also AAACUCCCGGCAACCGGGAACAUGAGGAUCACCCAUGUGGCGUGACUCAUACGGGCUUUUUGUUCGUUUUAUUCACG [Xeisororer] (puzzle: Sensor v3, turn-off variant 1) ?
27.7

Also AAAAGAGGAGGAUAUGCAAACAAUGUAAAAGUGAAAGUAAAACAUGAGGAUCACCCAUGUAGAAGGCCUGAAAA [nah] (puzzle: Exclusion 2) ?
20.4
